Target: Human Calpain 1/NS1 (Homo sapiens, UniProt P07384)
Sequence (P07384 1-714): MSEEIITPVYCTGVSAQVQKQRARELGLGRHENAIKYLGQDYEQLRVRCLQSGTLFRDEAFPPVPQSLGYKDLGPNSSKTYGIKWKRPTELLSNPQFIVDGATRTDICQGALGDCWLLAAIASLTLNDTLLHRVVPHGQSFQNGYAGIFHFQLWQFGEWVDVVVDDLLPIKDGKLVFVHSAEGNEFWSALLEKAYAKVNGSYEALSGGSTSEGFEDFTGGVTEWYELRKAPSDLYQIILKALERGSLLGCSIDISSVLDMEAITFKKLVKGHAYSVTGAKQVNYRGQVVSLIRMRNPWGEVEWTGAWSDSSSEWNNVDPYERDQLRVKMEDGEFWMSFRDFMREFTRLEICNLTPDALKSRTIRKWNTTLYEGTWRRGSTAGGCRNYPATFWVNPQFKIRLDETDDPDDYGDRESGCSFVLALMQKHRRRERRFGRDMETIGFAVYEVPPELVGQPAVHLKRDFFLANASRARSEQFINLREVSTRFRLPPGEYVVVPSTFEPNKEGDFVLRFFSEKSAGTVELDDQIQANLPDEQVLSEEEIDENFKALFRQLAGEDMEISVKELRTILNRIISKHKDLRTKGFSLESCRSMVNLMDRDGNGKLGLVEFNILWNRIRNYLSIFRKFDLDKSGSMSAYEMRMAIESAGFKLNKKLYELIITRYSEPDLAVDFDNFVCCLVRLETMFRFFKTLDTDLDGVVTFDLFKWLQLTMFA
Sequence (P04632 1-268 partner): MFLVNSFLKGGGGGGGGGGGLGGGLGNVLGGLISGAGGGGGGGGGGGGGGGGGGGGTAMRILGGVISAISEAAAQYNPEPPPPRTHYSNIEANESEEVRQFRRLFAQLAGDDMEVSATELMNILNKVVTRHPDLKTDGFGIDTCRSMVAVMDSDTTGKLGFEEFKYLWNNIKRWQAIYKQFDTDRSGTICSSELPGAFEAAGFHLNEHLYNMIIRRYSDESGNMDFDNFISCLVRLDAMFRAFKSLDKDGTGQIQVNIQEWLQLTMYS
Assay: Calpain inhibition continuous fluorescence (FRET) assay, Human Calpain 1/NS1
Type: biochemical
Conditions: Column A; read-out: Human Calpain 1/NS1 IC50

[
  {
    "compound": "Cc1nc(C(=O)N[C@@H](Cc2ccccc2)C(=O)C(N)=O)c(-c2ccccc2)[nH]1",
    "assayedSystem": "Human Calpain 1/NS1 (Homo sapiens, UniProt P07384)",
    "IC50": "< 3 µM"
  },
  {
    "compound": "CC(=O)NCc1ccc(-n2nc(C)cc2C(=O)N[C@@H](Cc2ccccc2)C(=O)C(N)=O)cc1",
    "assayedSystem": "Human Calpain 1/NS1 (Homo sapiens, UniProt P07384)",
    "IC50": "< 3 µM"
  },
  {
    "compound": "O=C[C@H](Cc1ccccc1)NC(=O)c1cccc2nc(-c3ccccc3)[nH]c12",
    "assayedSystem": "Human Calpain 1/NS1 (Homo sapiens, UniProt P07384)",
    "IC50": "3 to 10 µM"
  },
  {
    "compound": "O=C(NC1CC1)C(=O)[C@H](Cc1ccccc1)NC(=O)c1scnc1-n1ncc2ccccc21",
    "assayedSystem": "Human Calpain 1/NS1 (Homo sapiens, UniProt P07384)",
    "IC50": "< 3 µM"
  },
  {
    "compound": "Cc1nc(-c2ccccn2)c(C(=O)N[C@@H](Cc2ccccc2)C(=O)C(N)=O)o1",
    "assayedSystem": "Human Calpain 1/NS1 (Homo sapiens, UniProt P07384)",
    "IC50": "< 3 µM"
  },
  {
    "compound": "Cc1cc(C(=O)N[C@@H](Cc2ccccc2)C(=O)C(N)=O)n(-c2ccc(CNS(=O)(=O)c3ccccc3)cc2)n1",
    "assayedSystem": "Human Calpain 1/NS1 (Homo sapiens, UniProt P07384)",
    "IC50": "< 3 µM"
  },
  {
    "compound": "Cc1cc(C(=O)N[C@@H](Cc2ccccc2)C(=O)C(=O)NC2CC2)nn1-c1nc(-c2ccccc2)cs1",
    "assayedSystem": "Human Calpain 1/NS1 (Homo sapiens, UniProt P07384)",
    "IC50": "> 10 µM"
  },
  {
    "compound": "Cc1cc(C(=O)N[C@@H](Cc2ccccc2)C(=O)C(=O)NC2CC2)n(-c2nc3ccccc3n2C)n1",
    "assayedSystem": "Human Calpain 1/NS1 (Homo sapiens, UniProt P07384)",
    "IC50": "> 10 µM"
  },
  {
    "compound": "NC(=O)C(=O)[C@H](Cc1ccccc1)NC(=O)c1conc1-c1ccccc1",
    "assayedSystem": "Human Calpain 1/NS1 (Homo sapiens, UniProt P07384)",
    "IC50": "< 3 µM"
  },
  {
    "compound": "O=C[C@H](Cc1ccccc1)NC(=O)[C@@H]1CCCN1c1nc2ccccc2s1",
    "assayedSystem": "Human Calpain 1/NS1 (Homo sapiens, UniProt P07384)",
    "IC50": "< 3 µM"
  },
  {
    "compound": "NC(=O)C(=O)[C@H](Cc1ccccc1)NC(=O)c1c(-c2ccccc2)noc1C(F)(F)F",
    "assayedSystem": "Human Calpain 1/NS1 (Homo sapiens, UniProt P07384)",
    "IC50": "< 3 µM"
  },
  {
    "compound": "O=C[C@H](Cc1ccccc1)NC(=O)c1cncn1-c1cc(-c2ncco2)ccn1",
    "assayedSystem": "Human Calpain 1/NS1 (Homo sapiens, UniProt P07384)",
    "IC50": "< 3 µM"
  },
  {
    "compound": "Cc1noc(-n2cc3ccccc3n2)c1C(=O)N[C@@H](Cc1ccccc1)C(=O)C(N)=O",
    "assayedSystem": "Human Calpain 1/NS1 (Homo sapiens, UniProt P07384)",
    "IC50": "< 3 µM"
  },
  {
    "compound": "Cc1cc(C(=O)N[C@@H](Cc2ccccc2)C(=O)C(N)=O)n(-c2nccc3ccccc23)n1",
    "assayedSystem": "Human Calpain 1/NS1 (Homo sapiens, UniProt P07384)",
    "IC50": "< 3 µM"
  },
  {
    "compound": "Cn1nc(Cl)c(C(=O)NC(Cc2ccccc2)C(=O)C(N)=O)c1Cl (stereo not shown)",
    "assayedSystem": "Human Calpain 1/NS1 (Homo sapiens, UniProt P07384)",
    "IC50": "< 3 µM"
  },
  {
    "compound": "Cn1nc(-c2ccccc2)c(C(=O)N[C@@H](Cc2ccccc2)C(=O)C(N)=O)c1Cl",
    "assayedSystem": "Human Calpain 1/NS1 (Homo sapiens, UniProt P07384)",
    "IC50": "< 3 µM"
  },
  {
    "compound": "CCc1cccc(-c2nn(C)cc2C(=O)N[C@@H](Cc2ccccc2)C(=O)C(N)=O)c1",
    "assayedSystem": "Human Calpain 1/NS1 (Homo sapiens, UniProt P07384)",
    "IC50": "< 3 µM"
  },
  {
    "compound": "Cn1cc(C(=O)N[C@@H](Cc2ccccc2)C(=O)C(N)=O)c(-c2ccccc2)n1",
    "assayedSystem": "Human Calpain 1/NS1 (Homo sapiens, UniProt P07384)",
    "IC50": "< 3 µM"
  },
  {
    "compound": "NC(=O)C(=O)[C@H](Cc1ccccc1)NC(=O)c1ocnc1-c1ccccc1",
    "assayedSystem": "Human Calpain 1/NS1 (Homo sapiens, UniProt P07384)",
    "IC50": "< 3 µM"
  },
  {
    "compound": "Cc1cc(C(=O)N[C@@H](Cc2ccccc2)C(=O)C(N)=O)c(-c2ccccc2)s1",
    "assayedSystem": "Human Calpain 1/NS1 (Homo sapiens, UniProt P07384)",
    "IC50": "< 3 µM"
  },
  {
    "compound": "Cc1nnn(-c2ccccc2)c1C(=O)N[C@@H](Cc1ccccc1)C(=O)C(N)=O",
    "assayedSystem": "Human Calpain 1/NS1 (Homo sapiens, UniProt P07384)",
    "IC50": "< 3 µM"
  },
  {
    "compound": "Cc1cc(C(=O)N[C@@H](Cc2ccccc2)C(=O)C(N)=O)n(-c2nccs2)n1",
    "assayedSystem": "Human Calpain 1/NS1 (Homo sapiens, UniProt P07384)",
    "IC50": "< 3 µM"
  },
  {
    "compound": "Cc1cccc(-c2nn(C)cc2C(=O)N[C@@H](Cc2ccccc2)C(=O)C(N)=O)c1",
    "assayedSystem": "Human Calpain 1/NS1 (Homo sapiens, UniProt P07384)",
    "IC50": "< 3 µM"
  },
  {
    "compound": "Cc1nc(-c2ccc(F)cc2)c(C(=O)N[C@@H](Cc2ccccc2)C(=O)C(N)=O)o1",
    "assayedSystem": "Human Calpain 1/NS1 (Homo sapiens, UniProt P07384)",
    "IC50": "< 3 µM"
  },
  {
    "compound": "NC(=O)C(=O)[C@H](Cc1ccccc1)NC(=O)c1occc1-c1ccccc1",
    "assayedSystem": "Human Calpain 1/NS1 (Homo sapiens, UniProt P07384)",
    "IC50": "< 3 µM"
  },
  {
    "compound": "Cc1cc(C(=O)N[C@@H](Cc2ccccc2)C(=O)C(=O)NC2CC2)n(-c2cnccn2)n1",
    "assayedSystem": "Human Calpain 1/NS1 (Homo sapiens, UniProt P07384)",
    "IC50": "< 3 µM"
  },
  {
    "compound": "Cn1ncc(C(=O)N[C@@H](Cc2ccccc2)C(=O)C(N)=O)c1-c1ccncc1",
    "assayedSystem": "Human Calpain 1/NS1 (Homo sapiens, UniProt P07384)",
    "IC50": "< 3 µM"
  },
  {
    "compound": "Cn1nc(C(=O)N[C@@H](Cc2ccccc2)C(=O)C(N)=O)c(-c2ccccc2)n1",
    "assayedSystem": "Human Calpain 1/NS1 (Homo sapiens, UniProt P07384)",
    "IC50": "< 3 µM"
  },
  {
    "compound": "Cc1cc(C(=O)N[C@@H](Cc2ccccc2)C(=O)C(N)=O)n(-c2ncccn2)n1 (single isomer, unassigned) [Compound 36]",
    "assayedSystem": "Human Calpain 1/NS1 (Homo sapiens, UniProt P07384)",
    "IC50": "> 10 µM"
  },
  {
    "compound": "Cc1ccc(-c2c(C(=O)N[C@@H](Cc3ccccc3)C(=O)C(N)=O)cnn2C)cc1",
    "assayedSystem": "Human Calpain 1/NS1 (Homo sapiens, UniProt P07384)",
    "IC50": "< 3 µM"
  },
  {
    "compound": "Cc1cc(C(=O)N[C@@H](Cc2ccccc2)C(=O)C(=O)NCc2ccc(Cl)c(Cl)c2)n(-c2ccccc2)n1",
    "assayedSystem": "Human Calpain 1/NS1 (Homo sapiens, UniProt P07384)",
    "IC50": "> 10 µM"
  }
]
